For each record, write down the corresponding IC50.
Target: GRK2 (Homo sapiens, UniProt P25098)
Construct: purchased SignalChem A14-10G
Assay: GRK2 Inhibition Assay (TR-FRET, Example 7)
Type: biochemical
Settings: Enzyme Assay B, TR-FRET (Example 7); read-out: B: Enzymatic GRK2: IC50 (nM) (Example 7)
Output spec: scalar in nM, unitless text.

Q: Consider the molecule "Cn1c(CNc2cccc(C(=O)N[C@@H]3CCOc4cc(F)ccc43)c2)nnc1-c1ccncn1" and give its measured IC50.
Ans: 1900

Q: Dear colleague, I am looking for the recorded IC50 of the following molecule: "Cc1ccc2c(c1)[C@@H](NC(=O)c1cccc(NCc3nnc(-c4ccncn4)n3C)c1)CC(C)(C)O2"
Ans: 240

Q: May I ask what IC50 has been recorded for "Cn1c(CNc2cc(C(=O)N[C@H]3COc4ccccc43)ccn2)nnc1-c1ccncn1" ?
Ans: 15.3

Q: Dear colleague, I am looking for the recorded IC50 of the following molecule: "O=C(NCc1cccnc1C(F)(F)F)c1cccc(NCc2nnc(-c3ccncc3)[nH]2)c1"
Ans: 13

Q: // returns reported IC50 for input "[2H]C([2H])(Nc1cccc(C(=O)NCc2ccncc2CC)c1)c1nnc(-c2ccncn2)n1C"
Ans: 9.4

Q: Sample "Cn1c(CNc2cccc(C(=O)N[C@H]3c4ccccc4C[C@H]3O)c2)nnc1-c1ccncn1" — what was its IC50?
Ans: 24

Q: What value of IC50 has been recorded for this entry: Cc1ccc2ncc(CNC(=O)c3cccc(NCc4nnc(-c5ccncn5)n4C)c3)n2c1 [drawing 596]
Ans: 7.2

Q: Would you mind telling me what IC50 value was observed for "Cn1c(CNc2cccc(C(=O)N[C@H]3CCOc4cc(Cl)ccc43)c2)nnc1-c1ccncn1" ?
Ans: 18

Q: Dear colleague, I am looking for the recorded IC50 of the following molecule: "CNCCCn1c(CNc2cccc(C(=O)NCc3cccnc3C(F)(F)F)c2)nnc1-c1ccncn1"
Ans: 280

====

Biological target: GRK2 (Homo sapiens)
Construct: purchased SignalChem A14-10G
Sequence (P25098 1-689): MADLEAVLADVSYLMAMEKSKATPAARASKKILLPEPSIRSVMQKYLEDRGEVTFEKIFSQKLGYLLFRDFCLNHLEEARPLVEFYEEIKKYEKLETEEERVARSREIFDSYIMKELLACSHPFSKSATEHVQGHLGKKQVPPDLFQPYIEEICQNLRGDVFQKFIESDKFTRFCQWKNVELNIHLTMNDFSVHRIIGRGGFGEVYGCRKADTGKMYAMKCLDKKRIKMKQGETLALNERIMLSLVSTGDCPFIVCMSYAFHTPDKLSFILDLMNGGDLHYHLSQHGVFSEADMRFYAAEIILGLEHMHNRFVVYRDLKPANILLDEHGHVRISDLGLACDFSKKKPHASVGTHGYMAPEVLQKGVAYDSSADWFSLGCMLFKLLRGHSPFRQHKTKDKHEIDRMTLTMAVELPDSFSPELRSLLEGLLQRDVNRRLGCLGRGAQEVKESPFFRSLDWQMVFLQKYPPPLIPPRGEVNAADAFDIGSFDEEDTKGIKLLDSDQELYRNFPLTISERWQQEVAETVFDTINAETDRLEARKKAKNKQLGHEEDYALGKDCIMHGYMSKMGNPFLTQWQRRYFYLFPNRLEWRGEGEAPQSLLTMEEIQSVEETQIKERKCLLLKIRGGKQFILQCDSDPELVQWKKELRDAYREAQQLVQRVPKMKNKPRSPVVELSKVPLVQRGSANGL
Assay: ADPGlo GRK2 Inhibition Assay (Example 8)
Assay type: biochemical
Conditions: Enzyme Assay A, ADPGlo (Example 8); read-out: A: Enzymatic GRK2: IC50 (nM) (Example 8)
Label Satisfied when IC50 < 30 nM; otherwise Not satisfied.

Q: Would you kindly verify if IC50 of "Cn1c(CNc2cccc(C(=O)NCc3cccc(F)c3F)c2)nnc1-c1ccncn1" is strictly less than 30 nM?
Ans: Satisfied

Q: Hello, I'm reviewing records and need to know if IC50 of Cn1c(CNc2cccc(C(=O)NC(c3ccncc3)C3CCC3)c2)nnc1-c1ccncn1 (stereo not shown) is below 30 nM. Could you check?
Ans: Satisfied

Q: Input "Cn1c(CNc2cccc(C(=O)NCc3nc4ccccc4[nH]3)c2)nnc1-c1ccncn1" ; condition: IC50 strictly below 30 nM. Does it hold?
Ans: Not satisfied

Q: Does the reported IC50 of "Cn1c(CNc2cccc(C(=O)NCc3cnc4ccccn34)c2)nnc1-c1ccncn1" stay below 30 nM?
Ans: Satisfied

Q: Could you please tell me whether IC50 recorded for "Cn1ccc(CNC(=O)c2cccc(NCc3nnc(-c4ccncn4)n3C)c2)n1" is less than 30 nM?
Ans: Not satisfied

Q: Lab note: confirm whether the reported IC50 for this compound is below 30 nM, equality not counting. compound: CC(NC(=O)c1cccc(NCc2nnc(-c3ccncn3)n2C)c1)c1ncnn1C (stereo not shown)
Ans: Not satisfied

Q: API: query returns whether the compound falls strictly under 30 nM in IC50. Query: "Cn1c(CNc2cccc(C(=O)NCc3ncccc3F)c2)nnc1-c1ccncn1"
Ans: Not satisfied

Q: Is IC50 strictly under 30 nM for the entry "O=C(N[C@H]1COc2cc(F)ccc21)c1cccc(NCc2nnc(-c3ccncc3)[nH]2)c1" ?
Ans: Satisfied

Q: Lab note: IC50 threshold 30 nM. Does this compound come in strictly under it? "Cc1ncsc1CNC(=O)c1cccc(NCc2nnc(-c3ccncn3)n2C)c1"
Ans: Satisfied

Q: Hi there! Is IC50 for "Cn1c(CNc2cc(C(=O)N[C@H]3COc4ccccc43)ccn2)nnc1-c1ccncn1" below 30 nM, do you know?
Ans: Satisfied
